// values below are reported MIC
test system: Streptococcus pyogenes; assay: Antibacterial activity against erythromycin-resistant Streptococcus pyogenes R1 clinical isolate by broth microdilution method; assay type: functional
Only the number, expressed in µg/mL, is required.

Here is how some compounds turned out for MIC.
CC[C@H]1OC(=O)[C@H](C)[C@@H](O)[C@H](C)[C@@H](O[C@@H]2O[C@H](C)C[C@H](N(C)C)[C@H]2OC(=O)Nc2cccc(C)c2)[C@](C)(O)C[C@@H](C)CN(C)[C@H](C)[C@H]2OC(=O)O[C@@]21C: 64
CC[C@H]1OC(=O)[C@H](C)[C@@H](OC(=O)Nc2cccc(Cl)c2)[C@H](C)[C@@H](O[C@@H]2O[C@H](C)C[C@H](N(C)C)[C@H]2O)[C@](C)(O)C[C@@H](C)CN(C)[C@H](C)[C@H]2OC(=O)O[C@@]21C: 32
CCCCCCNC(=O)O[C@H]1[C@H](C)[C@@H](O[C@@H]2O[C@H](C)C[C@H](N(C)C)[C@H]2OC(C)=O)[C@](C)(O)C[C@@H](C)CN(C)[C@H](C)[C@H]2OC(=O)O[C@]2(C)[C@@H](CC)OC(=O)[C@@H]1C: 32

Any idea what its MIC is? The compound is CC[C@H]1OC(=O)[C@H](C)[C@@H](O)[C@H](C)[C@@H](O[C@@H]2O[C@H](C)C[C@H](N(C)C)[C@H]2OC(=O)Nc2cccc(Cl)c2)[C@](C)(O)C[C@@H](C)CN(C)[C@H](C)[C@H]2OC(=O)O[C@@]21C
64

Can you share its MIC? I mean this compound: CC[C@H]1OC(=O)[C@H](C)[C@@H](OC(=O)Nc2cccc(F)c2)[C@H](C)[C@@H](O[C@@H]2O[C@H](C)C[C@H](N(C)C)[C@H]2O)[C@](C)(O)C[C@@H](C)CN(C)[C@H](C)[C@H]2OC(=O)O[C@@]21C
128

* * *

MIC by entry:
tested on: Streptococcus pneumoniae; experiment: Antibacterial activity against erythromycin-resistant Streptococcus pneumoniae AB11 expressing ermB/mefA genes by broth microdilution method; format: functional
Give the number; mg/L is assumed, so skip it.

CC[C@H]1OC(=O)[C@H](C)[C@@H](OC(=O)Nc2ccccc2)[C@H](C)[C@@H](O[C@@H]2O[C@H](C)C[C@H](N(C)C)[C@H]2O)[C@](C)(O)C[C@@H](C)CN(C)[C@H](C)[C@@H](OC(=O)NCc2ccccc2)[C@]1(C)O: 2
CC[C@H]1OC(=O)[C@H](C)[C@@H](O)[C@H](C)[C@@H](O[C@@H]2O[C@H](C)C[C@H](N(C)C)[C@H]2OC(=O)Nc2cccc(Cl)c2)[C@](C)(O)C[C@@H](C)CN(C)[C@H](C)[C@H]2OC(=O)O[C@@]21C: 32
CC[C@H]1OC(=O)[C@H](C)[C@@H](OC(=O)Nc2ccc(C(F)(F)F)cc2)[C@H](C)[C@@H](O[C@@H]2O[C@H](C)C[C@H](N(C)C)[C@H]2O)[C@](C)(O)C[C@@H](C)CN(C)[C@H](C)[C@H]2OC(=O)O[C@@]21C: 4
CC[C@H]1OC(=O)[C@H](C)[C@@H](OC(=O)Nc2cccc(C(F)(F)F)c2)[C@H](C)[C@@H](O[C@@H]2O[C@H](C)C[C@H](N(C)C)[C@H]2O)[C@](C)(O)C[C@@H](C)CN(C)[C@H](C)[C@H]2OC(=O)O[C@@]21C: 8
CC[C@H]1OC(=O)[C@H](C)[C@@H](OC(=O)Nc2cccc(OC)c2)[C@H](C)[C@@H](O[C@@H]2O[C@H](C)C[C@H](N(C)C)[C@H]2O)[C@](C)(O)C[C@@H](C)CN(C)[C@H](C)[C@H]2OC(=O)O[C@@]21C: 16
CC[C@H]1OC(=O)[C@H](C)[C@@H](O)[C@H](C)[C@@H](O[C@@H]2O[C@H](C)C[C@H](N(C)C)[C@H]2OC(=O)Nc2ccccc2)[C@](C)(O)C[C@@H](C)CN(C)[C@H](C)[C@H]2OC(=O)O[C@@]21C: 8

Form: Entry = CC[C@H]1OC(=O)[C@H](C)[C@@H](OC(=O)Nc2cccc(Cl)c2)[C@H](C)[C@@H](O[C@@H]2O[C@H](C)C[C@H](N(C)C)[C@H]2O)[C@](C)(O)C[C@@H](C)CN(C)[C@H](C)[C@H]2OC(=O)O[C@@]21C | System = Streptococcus pneumoniae | MIC = ____
4

Query MIC on Streptococcus pneumoniae for CC[C@H]1OC(=O)[C@H](C)[C@@H](OC(=O)n2ccnc2)[C@H](C)[C@@H](O[C@@H]2O[C@H](C)C[C@H](N(C)C)[C@H]2OC(C)=O)[C@](C)(O)C[C@@H](C)CN(C)[C@H](C)[C@H]2OC(=O)O[C@@]21C
256

Request: MIC, test system Streptococcus pneumoniae, entry CC[C@H]1OC(=O)[C@H](C)[C@@H](O)[C@H](C)[C@@H](O[C@@H]2O[C@H](C)C[C@H](N(C)C)[C@H]2OC(=O)Nc2cccc(F)c2)[C@](C)(O)C[C@@H](C)CN(C)[C@H](C)[C@H]2OC(=O)O[C@@]21C
16

// map CCCCCNC(=O)O[C@H]1[C@H](C)[C@@H](O[C@@H]2O[C@H](C)C[C@H](N(C)C)[C@H]2OC(C)=O)[C@](C)(O)C[C@@H](C)CN(C)[C@H](C)[C@H]2OC(=O)O[C@]2(C)[C@@H](CC)OC(=O)[C@@H]1C to recorded MIC (system: Streptococcus pneumoniae)
128

Request - read-out MIC | tested on Streptococcus pneumoniae | compound CC[C@H]1OC(=O)[C@H](C)[C@@H](OC(=O)NCc2ccccc2)[C@H](C)[C@@H](O[C@@H]2O[C@H](C)C[C@H](N(C)C)[C@H]2OC(C)=O)[C@](C)(O)C[C@@H](C)CN(C)[C@H](C)[C@H]2OC(=O)O[C@@]21C
64

Enter reported MIC observed with Streptococcus pneumoniae for CC[C@H]1OC(=O)[C@H](C)[C@@H](O[C@H]2C[C@@](C)(OC)[C@@H](O)[C@H](C)O2)[C@H](C)[C@@H](O[C@@H]2O[C@H](C)C[C@H](N(C)C)[C@H]2O)[C@](C)(OC)C[C@@H](C)C(=O)[C@H](C)[C@@H](O)[C@]1(C)O [CLARITHROMYCIN]
128

Query MIC on Streptococcus pneumoniae for CC[C@H]1OC(=O)[C@H](C)[C@@H](OC(=O)Nc2ccccc2F)[C@H](C)[C@@H](O[C@@H]2O[C@H](C)C[C@H](N(C)C)[C@H]2OC(C)=O)[C@](C)(O)C[C@@H](C)CN(C)[C@H](C)[C@H]2OC(=O)O[C@@]21C
32

What is its MIC for Streptococcus pneumoniae? Entry: CC[C@H]1OC(=O)[C@H](C)[C@@H](O)[C@H](C)[C@@H](O[C@@H]2O[C@H](C)C[C@H](N(C)C)[C@H]2OC(=O)n2ccnc2)[C@](C)(O)C[C@@H](C)CN(C)[C@H](C)[C@H]2OC(=O)O[C@@]21C
32

What MIC appears in the records for this compound with Streptococcus pneumoniae? CC[C@H]1OC(=O)[C@H](C)[C@@H](O[C@H]2C[C@@](C)(OC)[C@@H](O)[C@H](C)O2)[C@H](C)[C@@H](O[C@@H]2O[C@H](C)C[C@H](N(C)C)[C@H]2O)[C@](C)(O)C[C@@H](C)CN(C)[C@H](C)[C@@H](O)[C@]1(C)O [AZITHROMYCIN]
256

Enter reported MIC observed with Streptococcus pneumoniae for CC[C@H]1OC(=O)[C@H](C)[C@@H](O)[C@H](C)[C@@H](O[C@@H]2O[C@H](C)C[C@H](N(C)C)[C@H]2OC(=O)Nc2cccc(C)c2)[C@](C)(O)C[C@@H](C)CN(C)[C@H](C)[C@H]2OC(=O)O[C@@]21C
64
